All figures here come from patent US20200283478A1.

Target: T1, His-tagged, full-length human PCSK9 (proprotein convertase subtilisin/kexin type 9) (human, UniProt A8T644 31-152; Q8NBP7 153-692)
T1 construct: also called His-PCSK9; C-terminal (His)8-tagged PCSK9
T1 sequence (A8T644 31-152, chain 1 of 2): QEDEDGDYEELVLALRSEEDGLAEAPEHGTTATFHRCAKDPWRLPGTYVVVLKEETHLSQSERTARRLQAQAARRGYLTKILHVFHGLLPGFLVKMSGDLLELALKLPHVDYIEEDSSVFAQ
T1 sequence (A8T644 other isoform, or with tags, fused parts or gaps, chain 2 of 2): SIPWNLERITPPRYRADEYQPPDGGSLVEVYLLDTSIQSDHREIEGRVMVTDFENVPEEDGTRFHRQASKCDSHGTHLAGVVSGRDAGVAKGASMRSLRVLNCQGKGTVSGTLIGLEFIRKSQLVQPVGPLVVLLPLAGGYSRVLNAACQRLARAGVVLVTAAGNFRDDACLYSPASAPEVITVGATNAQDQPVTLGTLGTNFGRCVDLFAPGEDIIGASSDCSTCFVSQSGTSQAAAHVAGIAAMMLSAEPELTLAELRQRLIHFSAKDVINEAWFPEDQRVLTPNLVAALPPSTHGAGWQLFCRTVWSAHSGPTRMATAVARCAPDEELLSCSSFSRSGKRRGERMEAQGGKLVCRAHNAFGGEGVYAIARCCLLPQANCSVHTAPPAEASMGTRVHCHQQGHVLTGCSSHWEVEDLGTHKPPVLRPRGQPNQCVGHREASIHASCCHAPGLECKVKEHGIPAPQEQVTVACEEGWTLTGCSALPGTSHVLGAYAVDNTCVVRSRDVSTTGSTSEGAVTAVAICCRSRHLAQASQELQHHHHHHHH
Test: TR-FRET competition; His-PCSK9 with EGF(A)-Fc as competitor ligand
Square brackets hold non-standard residues; d marks the D form. hArg = N=C(N)NCCCC[C@H](N)C(=O)O
Measured Endpoint: pIC50
// pIC50 is dimensionless: -log10 of concentration (M)

Ac-MESFPGWNLV[hArg]IGLLR-NH2 (SMILES CC[C@H](C)[C@H](NC(=O)[C@H](CCCCNC(=N)N)NC(=O)[C@@H](NC(=O)[C@H](CC(C)C)NC(=O)[C@H](CC(N)=O)NC(=O)[C@H](Cc1c[nH]c2ccccc12)NC(=O)CNC(=O)[C@@H]1CCCN1C(=O)[C@H](Cc1ccccc1)NC(=O)[C@H](CO)NC(=O)[C@H](CCC(=O)O)NC(=O)[C@H](CCSC)NC(C)=O)C(C)C)C(=O)NCC(=O)N[C@@H](CC(C)C)C(=O)N[C@@H](CC(C)C)C(=O)N[C@@H](CCCNC(=N)N)C(N)=O) [Compound 229: Ac-MESFPGWNLV(homoR)IGLLR-NH2] : 5.08

Exam item: Tell me its pIC50 given Ac-ESFPGWNLV[hArg]IGLLR-NH2 (SMILES CC[C@H](C)[C@H](NC(=O)[C@H](CCCCNC(=N)N)NC(=O)[C@@H](NC(=O)[C@H](CC(C)C)NC(=O)[C@H](CC(N)=O)NC(=O)[C@H](Cc1c[nH]c2ccccc12)NC(=O)CNC(=O)[C@@H]1CCCN1C(=O)[C@H](Cc1ccccc1)NC(=O)[C@H](CO)NC(=O)[C@H](CCC(=O)O)NC(C)=O)C(C)C)C(=O)NCC(=O)N[C@@H](CC(C)C)C(=O)N[C@@H](CC(C)C)C(=O)N[C@@H](CCCNC(=N)N)C(N)=O) [Compound 227: Ac-ESFPGWNLV(homoR)IGLLR-NH2] as the entry.
Marked response: 4.63
